Attribution: PubChem BioAssay

Assay: antimalarial activity against Dd2 strain (AID 2302);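 note: 0% = DMSO untreated growth and 100% = chloroquine plus artemisinin killed control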
Settings: P. falciparum Dd2 in RBCs, LDH growth readout, 72 h; at 2 µM; stronger effect = higher value
I would appreciate it if you labelled entries y when growth inhibition is 80% or higher, otherwise n.

For orientation, consider the following solved cases.
* Cc1nc2ccc3ccc(CNc4ccc5c(c4)CN([C@H](CCC(=O)O)C(=O)O)C5=O)cc3c2c(=O)[nH]1 | y
* CC1CCCCN1Cc1cccc(-c2c[nH]c3nc(NC4CCCC4)ncc23)c1 (centres undefined) | n
* CC1(CCc2ccccc2)N=C(N)N(Cc2ccccc2)C(=O)C1c1ccc(Cl)c(Cl)c1 (centres undefined) | y
* O=C(Nc1ccc(Cl)cc1)Nc1ccc(OCC(O)CN2CCCCC2)cc1 (centres undefined) | n
* Nc1nccc2ccc(-c3ccc(OCc4ccccc4)cc3)cc12 | n
* Cc1ccc(NC(=O)c2ccc3ncccc3c2)cc1OC1CCN(Cc2ccc(F)cc2)C1 (centres undefined) | n
* COc1ccc(Cn2c(Nc3cccc(C(F)(F)F)c3)nc3cc(C(=O)NCCN4CCCC4)ccc32)cc1Cl | n
* N#Cc1ccc(N[C@@H](CC2CCCCC2)C(=O)Nc2ccc(-c3ccccc3)cc2)c2ccccc12 | y
* CC(C)Sc1nc(-c2ccccc2)nc2c1COC(C)(C)C2 | n
* O=C(N[C@@H](Cc1ccccc1)C(=O)NC1CCCc2ccccc21)c1ccc(O)c(-c2cccc(C(F)(F)F)c2)c1 (some centres undefined) | n

Please indicate if the recorded growth inhibition for "Cc1cccc2[nH]c(-c3cccc(-c4cccc(CNCCN5CCNCC5)c4)c3)nc12" meets or exceeds 80%.
n

Determine whether measured growth inhibition meets or exceeds 80% for "CN1CCN(CCCN(Cc2ccc(-c3cccc(CNC4CCCC4)c3)cc2)C(=O)Nc2ccccc2)CC1"
n

Answer whether growth inhibition of "CCc1c[nH]c2c(N3CCCC3=O)cc(C(=O)N[C@@H](Cc3ccccc3)[C@H](O)CNC(C)(C)c3cccc(C(F)(F)F)c3)cc12" is greater than or equal to 80%.
y

hey, is growth inhibition for this one >= 80%? "CCn1c(Sc2ccc(C#N)c([N+](=O)[O-])c2)nnc1-c1cccc(Cl)c1"
y

Say whether "O=C(/C=C/c1ccc(Cl)c(Cl)c1)N1CCC(CCN2CCC(c3c[nH]c4cnccc34)CC2)CC1" shows growth inhibition of 80% or more.
y

// inclusive: growth inhibition at least 80%? input: "CSc1ccc(NC(=O)Nc2cc(C)nc3ccccc23)cc1"
n

----------
Target: L-lactate dehydrogenase (Plasmodium falciparum (isolate CDC / Honduras)) (UniProt Q27743)
Sequence (Q27743 whole entry, looked up): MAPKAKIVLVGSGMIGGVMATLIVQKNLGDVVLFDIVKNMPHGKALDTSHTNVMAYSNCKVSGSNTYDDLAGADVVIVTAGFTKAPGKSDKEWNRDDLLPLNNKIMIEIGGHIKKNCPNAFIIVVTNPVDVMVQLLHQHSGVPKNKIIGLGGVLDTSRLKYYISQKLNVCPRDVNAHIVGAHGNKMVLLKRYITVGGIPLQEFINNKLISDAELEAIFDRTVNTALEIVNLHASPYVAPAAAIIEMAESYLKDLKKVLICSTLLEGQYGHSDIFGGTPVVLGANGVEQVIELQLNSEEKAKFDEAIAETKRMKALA
Experiment: PfLDH activity inhibition – cell lysate, 3D7 strain, counter-screen for P. falciparum growth inhibition project (AID 2304);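 note: 0% = vehicle and 100% = reference inhibitor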
Conditions: P. falciparum 3D7 crude extract, LDH APAD/NBT absorbance; at 2 µM; stronger effect = higher value
Measured Parameter: inhibition (%)
Field format: number, assumed %, no unit text.

Illustrative cases are given below, each with its answer.
• COCCNCc1ccc(-c2ccc(CNC3CCN(Cc4ccccc4)CC3)cc2)cc1 = -4
• CC(=O)c1ccc(NC(=O)Nc2ccc(N(C)c3ccnc(NC4CC4)n3)cc2)cc1 = 1
• Cc1cc(N2Cc3ccccc3C2)nc(Nc2ccc(S(=O)(=O)N3CCOCC3)cc2)n1 = 0
• O=C(Nc1cccc(-c2ccc(-c3nc4ccccc4[nH]3)s2)c1)c1ccncc1 = -9
• CNCCNCc1cccc(-c2ccc(-c3nc4ccccc4[nH]3)s2)c1 = 0

Entry under review: "CCOC(=O)c1ccc(NC(=O)N(Cc2ccc(-c3ccc(CN4CCNCC4)cc3)cc2)C2CCN(Cc3ccccc3)CC2)cc1" . Reported inhibition?
3

I'd like to know its inhibition. The compound in question is "O=C1C(c2ccccc2)=C(Nc2cccc(OC(F)(F)C(F)F)c2)c2ccccc21"
0

I'd like to know its inhibition. The compound in question is "FC(F)(F)c1ccc(CNCC2CCN(Cc3ccc4c(c3)OCO4)CC2)cc1"
-5

Fill in: inhibition of OC(COCc1ccc(-c2ccccc2)cc1)CN1CCCCC1 (centres undefined) is ___
-1

Endpoint output: inhibition of "COc1ccc(S(=O)(=O)NCCCC2CCN(CCCCCNC(=O)C=Cc3ccc(Cl)c(Cl)c3)CC2)cc1" . Value?
0
